Would you kindly list NKL Ortho Proliferation Signal 1:10 for each of these binders?
SUBJECT_OF_TEST: T1, orthogonal hCD122 receptor (hoRb), hCD122 with H133D and Y134F (human, UniProt P14784 27-550)
T1 sequence: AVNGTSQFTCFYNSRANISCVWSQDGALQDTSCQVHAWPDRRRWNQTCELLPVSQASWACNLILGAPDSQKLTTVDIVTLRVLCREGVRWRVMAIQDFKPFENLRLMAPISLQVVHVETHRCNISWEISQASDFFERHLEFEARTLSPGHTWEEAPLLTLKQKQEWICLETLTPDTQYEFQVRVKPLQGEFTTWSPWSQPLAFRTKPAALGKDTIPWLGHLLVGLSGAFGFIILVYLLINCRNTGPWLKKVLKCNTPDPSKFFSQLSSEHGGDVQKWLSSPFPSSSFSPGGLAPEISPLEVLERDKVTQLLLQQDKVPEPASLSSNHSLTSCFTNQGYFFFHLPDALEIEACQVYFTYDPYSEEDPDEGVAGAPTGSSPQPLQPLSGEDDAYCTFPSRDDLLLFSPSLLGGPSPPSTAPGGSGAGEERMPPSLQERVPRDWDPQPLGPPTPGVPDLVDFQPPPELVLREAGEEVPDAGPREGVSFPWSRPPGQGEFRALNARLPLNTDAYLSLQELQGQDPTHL
ASSAY_PROTOCOL: cell-based or functional assay
One number for each entry.

{"columns": ["BINDER", "ASSAY_METRIC", "OBS_VALUE"],
 "data": [
  ["T113N, SQVLKA (ligand) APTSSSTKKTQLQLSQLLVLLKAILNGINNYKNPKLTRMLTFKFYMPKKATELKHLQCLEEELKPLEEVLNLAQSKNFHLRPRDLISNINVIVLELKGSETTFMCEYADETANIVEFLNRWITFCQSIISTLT", "NKL Ortho Proliferation Signal 1:10", 48800]
]}

**Query** Return reported NKL Ortho Proliferation Signal 1:10; argument: L14M, SQVLKA (ligand) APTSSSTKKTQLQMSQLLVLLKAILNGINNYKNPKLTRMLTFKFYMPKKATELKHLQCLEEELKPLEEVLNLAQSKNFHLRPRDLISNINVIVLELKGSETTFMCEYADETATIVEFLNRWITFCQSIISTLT
**Result** 54500
